# Protocol Summary: in vitro
# Experimental Conditions: human, hela cells, % viability
Measure: viability at 28.5 h, 10 µM (%)

Compound: CCC(NS(=O)(=O)c1cc(-n2cccn2)ccc1OC)C1CC(O)C1 (centres unmarked)
Observed: 106

Compound: Cc1nonc1NC(=O)CSc1nc2ccccc2[nH]1
Observed: 101

Compound: Cc1cc(C)nc(-n2[nH]c(N)cc2=O)n1
Observed: 85.7

Compound: O=C(CN1CCCC1c1cccs1)Nc1cccc(C(=O)NC2CC2)c1 (centres unmarked)
Observed: 98.5

Compound: Cn1c(SCC(=O)Nc2ccc(F)cc2)nnc1-c1cccnc1
Observed: 94.7

Compound: FC(F)(F)c1cccc(-c2cnn(-c3ccncc3)n2)c1
Observed: 102

Compound: CCCCN(C)c1nccnc1-c1ccncc1
Observed: 93.4

Compound: Cc1sc(NC(=S)NC(=O)C2CCCCC2)c(C(N)=O)c1C
Observed: 97.3

Compound: CC1(c2ccco2)NC(=O)N(Cc2ncc(-c3cccs3)o2)C1=O (centres unmarked)
Observed: 98.8

Compound: COCc1cccc(-c2nccnc2OC2CCCCC2)c1
Observed: 87.5

Compound: c1cnc2cc(Oc3ccc4nccnc4c3)ccc2n1
Observed: 99.4

Compound: CCc1nc2ccccc2n1CC(=O)N(Cc1cccnc1)C1CC1
Observed: 107

Compound: O=C(Nc1cccc2[nH]ccc12)c1ccc(Cl)cc1
Observed: 91.7

Compound: CC(C)COc1ccccc1C(=O)NCCC(=O)O
Observed: 102

Compound: COC(=O)[C@H]1CN(C(=O)c2cn(C)nc2C)C[C@@H]1c1ccccc1F
Observed: 88.2

Compound: COc1ccc(OC)c(-n2cnc3c2NC(=O)CC3c2ccccc2Cl)c1 (centres unmarked)
Observed: 91.1

Compound: COc1cc(-c2nccnc2NCc2ccc(OC(F)(F)F)cc2)cc(OC)c1OC
Observed: 117

Compound: O=C(Nc1ccccc1)N1C[C@@H]2OCC(=O)N(Cc3ccc(F)cc3)[C@@H]2C1
Observed: 82

Compound: O=[N+]([O-])c1ccc(CN(CCc2ccccc2)Cc2ccccc2)cc1
Observed: 99.2

Compound: OC(CNCc1ccc2c(c1)OCO2)COc1ccc(SC(F)(F)F)cc1 (centres unmarked)
Observed: 120

----------
List of activity at 10 µM values.
# Tested on: C. trachomatis L2/434/Bu expressing GFP (CTL2-GFP)
# Construct: L2/434/Bu GFP intracellular growth in HeLa cells
# Protocol Summary: microbe, parasite or virus in culture
# Design: C. trachomatis total inclusion area by high-content imaging, normalised to DMSO
# Experimental Conditions: Chlamydia trachomatis, HeLa, 28.5 h; total inclusion area; read-out: % of control remaining

Compound: O=c1c2cnc3ccnn3c2ccn1C1CCCC1
Measured Target: C. trachomatis L2/434/Bu expressing GFP (CTL2-GFP)
activity at 10 µM, %: 4.02
--
Compound: C[C@H](NC(=O)Cc1ccc(-c2ccccc2)cc1)c1nc2ccccc2[nH]1
Measured Target: C. trachomatis L2/434/Bu expressing GFP (CTL2-GFP)
activity at 10 µM, %: 30.7
--
Compound: CC(Nc1cccc2ccccc12)C(=O)N/N=C/c1c(O)ccc2ccccc12 (stereo not shown)
Measured Target: C. trachomatis L2/434/Bu expressing GFP (CTL2-GFP)
activity at 10 µM, %: 21
--
Compound: CC(C)(N)CNC(=O)c1cc(C(C)(C)C)nn1Cc1ccc(Cl)cc1Cl
Measured Target: C. trachomatis L2/434/Bu expressing GFP (CTL2-GFP)
activity at 10 µM, %: 26.9
--
Compound: CCc1nnc(NS(=O)(=O)c2ccc(N/C=C\C(=O)c3ccc4ccccc4c3)cc2)s1
Measured Target: C. trachomatis L2/434/Bu expressing GFP (CTL2-GFP)
activity at 10 µM, %: 19.1
--
Compound: CC(Cc1nc(-c2nccn2C(C)C)cs1)n1cc(Cl)cn1 (stereo not shown)
Measured Target: C. trachomatis L2/434/Bu expressing GFP (CTL2-GFP)
activity at 10 µM, %: 28.6
--
Compound: Cc1noc(NS(=O)(=O)c2ccc(NC(=O)COc3cccc(Br)c3)cc2)c1C
Measured Target: C. trachomatis L2/434/Bu expressing GFP (CTL2-GFP)
activity at 10 µM, %: 20.6
